- subject_of_test: UniProtKB P49841
- Sequence (P49841 whole entry): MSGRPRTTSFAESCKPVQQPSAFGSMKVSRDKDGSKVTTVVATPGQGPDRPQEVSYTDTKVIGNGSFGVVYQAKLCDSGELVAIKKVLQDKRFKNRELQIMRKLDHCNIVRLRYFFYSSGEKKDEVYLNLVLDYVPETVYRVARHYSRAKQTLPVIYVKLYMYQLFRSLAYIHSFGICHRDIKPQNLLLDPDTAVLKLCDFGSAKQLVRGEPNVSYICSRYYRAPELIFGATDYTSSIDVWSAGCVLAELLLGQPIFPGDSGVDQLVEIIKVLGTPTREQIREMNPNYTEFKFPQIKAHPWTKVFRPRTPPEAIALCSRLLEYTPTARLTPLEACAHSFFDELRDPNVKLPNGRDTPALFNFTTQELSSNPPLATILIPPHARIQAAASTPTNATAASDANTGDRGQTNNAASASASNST
- Format: functional
Active and inactive are the calls of the source.
Outcomes you can answer with include only these: 1.0 (active), 0.0 (inactive)

Example results:
compound	class
O=c1[nH]c2cc(Br)cnc2[nH]1	1.0
CCC1CC(NS(=O)(=O)C2CC2)CC1c1ncc2cnc3[nH]ccc3n12 (centres undefined)	0.0
O=C(Nc1cccc(C(F)(F)F)n1)Nc1ccnc2cc(Cl)ccc12	1.0

Note: attention shifts to another entry.
Query: Outcome logged for O=c1cc(-c2ccc(F)cc2)[nH]c2c(-c3ccc(F)cc3)cnn12 in this assay:
Result: 1.0

###

- subject_of_test: UniProtKB Q04759
- Sequence (Q04759 whole entry): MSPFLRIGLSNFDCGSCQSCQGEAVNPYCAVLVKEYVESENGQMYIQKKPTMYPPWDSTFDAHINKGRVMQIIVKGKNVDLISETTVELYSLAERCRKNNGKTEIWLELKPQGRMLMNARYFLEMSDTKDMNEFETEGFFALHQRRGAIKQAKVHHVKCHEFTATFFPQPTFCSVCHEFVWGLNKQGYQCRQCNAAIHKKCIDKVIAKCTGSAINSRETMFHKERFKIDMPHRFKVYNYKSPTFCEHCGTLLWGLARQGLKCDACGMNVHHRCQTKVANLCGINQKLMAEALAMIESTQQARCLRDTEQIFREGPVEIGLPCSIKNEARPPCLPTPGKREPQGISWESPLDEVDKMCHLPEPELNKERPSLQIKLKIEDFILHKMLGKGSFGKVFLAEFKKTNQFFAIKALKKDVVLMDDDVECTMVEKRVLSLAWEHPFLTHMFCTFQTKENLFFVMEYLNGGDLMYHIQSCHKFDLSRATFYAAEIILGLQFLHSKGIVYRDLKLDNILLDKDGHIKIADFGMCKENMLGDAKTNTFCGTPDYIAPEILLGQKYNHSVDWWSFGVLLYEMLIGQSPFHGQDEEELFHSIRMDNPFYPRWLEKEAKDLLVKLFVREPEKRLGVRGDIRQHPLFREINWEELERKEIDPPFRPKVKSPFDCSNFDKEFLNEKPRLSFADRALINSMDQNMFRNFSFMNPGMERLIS
- assay_remarks: Navigating the Kinome. Panel member name: PRKCQ
- Format: functional
Calls of active or inactive are those of the source.
measured_metric: Ki

Before answering, review these 3 worked examples.
compound	Ki
O=c1[nH]c2cc(Br)cnc2[nH]1	31.6 µM (active)
O=C(Nc1cccc(C(F)(F)F)n1)Nc1ccnc2cc(Cl)ccc12	> 2.51 µM (inactive)
O=C(Nc1cccc(C(F)(F)F)n1)Nc1ccnc2cc(OC(F)F)ccc12	> 2.51 µM (inactive)

Query: I would be grateful if you could share the reported Ki for CCC1CC(NS(=O)(=O)C2CC2)CC1c1ncc2cnc3[nH]ccc3n12 (centres undefined) .
Result: 0.2 µM (active)

###

- subject_of_test: fMet-Leu-Phe receptor (Homo sapiens)
- Sequence (P21462 whole entry): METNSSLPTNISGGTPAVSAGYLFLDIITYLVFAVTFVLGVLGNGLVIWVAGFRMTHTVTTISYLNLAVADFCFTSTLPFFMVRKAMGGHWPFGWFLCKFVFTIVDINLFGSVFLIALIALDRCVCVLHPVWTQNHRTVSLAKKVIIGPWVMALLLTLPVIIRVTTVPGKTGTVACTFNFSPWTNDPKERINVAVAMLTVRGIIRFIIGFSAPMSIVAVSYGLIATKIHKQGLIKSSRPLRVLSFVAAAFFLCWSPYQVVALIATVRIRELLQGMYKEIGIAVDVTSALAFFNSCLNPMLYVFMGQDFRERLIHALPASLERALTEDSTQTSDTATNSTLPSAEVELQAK
- assay_remarks: FPR ligands, dose response (AID 519)
- Assay type: functional
Active and inactive are the calls of the source.
Outcomes you can answer with include only these: TRUE = active, FALSE = inactive

Example results:
compound	class
O=C(NC1CCCC1)c1sc(=S)n2c1[nH]c(=O)c1ccccc12	TRUE
O=C(Nc1nnc(-c2ccccc2Cl)o1)c1ccc(S(=O)(=O)N2CCCCCC2)cc1	FALSE
COCCCN1C(=O)C(O)=C(C(=O)c2ccc3c(c2)CC(C)O3)C1c1cccnc1 (centres undefined)	FALSE

Note: attention shifts to another entry.
Query: Outcome logged for COc1ccc(-c2cc(C(F)(F)F)nc(NC3CCCC3)n2)cc1OC in this assay:
Result: FALSE

###

- subject_of_test: Caspase-6 (Homo sapiens)
- Sequence (P55212 24-179 limits assumed): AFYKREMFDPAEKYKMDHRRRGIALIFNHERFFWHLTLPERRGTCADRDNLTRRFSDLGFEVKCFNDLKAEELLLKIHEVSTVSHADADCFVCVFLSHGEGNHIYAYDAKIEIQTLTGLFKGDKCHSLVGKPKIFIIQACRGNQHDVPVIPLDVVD
- Sequence (P55212 194-293 limits assumed): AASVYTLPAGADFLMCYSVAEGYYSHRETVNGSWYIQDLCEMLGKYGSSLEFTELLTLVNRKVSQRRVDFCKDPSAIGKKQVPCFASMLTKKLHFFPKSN
- assay_remarks: human caspase-6 inhibitors, dose response, biochemical, VEID-R110 fluorescence, cherry-pick (AID 720632)
Activity calls are given as the source filed them.
Recorded AC50 for the following compounds

Before answering, review these 5 worked examples.
compound	AC50
CN(C)CCCNc1cc(O)c2ncccc2c1	3.64 µM (active)
COc1cc(C)c2c(c1C=O)Oc1c(c(C)c(O)c3c1C(O)OC3=O)OC2=O (stereo unspecified)	0.817 µM (active)
O=C1Cc2ccccc2C(=O)N1Nc1ccccc1	51.5 µM (active)
Nc1cc2nn(-c3ccccc3)nc2cc1Cl	2 µM (active)
O=C(O)c1c2c(nc3ccc(Cl)cc13)CCC2	28.8 µM (active)

Now for the compound whose AC50 we want.
Query: I would be grateful if you could share the reported AC50 for O=c1c(-c2cc(O)[nH]n2)c(O)c2ccccc2n1Cc1ccccc1 .
Result: 19.7 µM (active)

###

- subject_of_test: Corticotropin-releasing factor receptor 2/Corticotropin-releasing factor-binding protein (Homo sapiens, UniProt P24387+Q13324)
- Sequence (Q13324 whole entry): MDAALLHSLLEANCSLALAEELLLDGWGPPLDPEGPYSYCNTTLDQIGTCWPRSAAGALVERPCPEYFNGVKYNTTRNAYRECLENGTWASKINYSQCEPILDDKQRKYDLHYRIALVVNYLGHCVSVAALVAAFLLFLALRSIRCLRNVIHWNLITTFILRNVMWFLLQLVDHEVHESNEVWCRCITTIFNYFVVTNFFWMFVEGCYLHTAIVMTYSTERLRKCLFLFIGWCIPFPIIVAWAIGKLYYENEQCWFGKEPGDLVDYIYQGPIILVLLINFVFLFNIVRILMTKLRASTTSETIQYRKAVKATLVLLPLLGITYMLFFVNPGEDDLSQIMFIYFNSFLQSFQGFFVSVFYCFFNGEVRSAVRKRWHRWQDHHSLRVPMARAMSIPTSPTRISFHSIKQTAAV
- Sequence (P24387 whole entry): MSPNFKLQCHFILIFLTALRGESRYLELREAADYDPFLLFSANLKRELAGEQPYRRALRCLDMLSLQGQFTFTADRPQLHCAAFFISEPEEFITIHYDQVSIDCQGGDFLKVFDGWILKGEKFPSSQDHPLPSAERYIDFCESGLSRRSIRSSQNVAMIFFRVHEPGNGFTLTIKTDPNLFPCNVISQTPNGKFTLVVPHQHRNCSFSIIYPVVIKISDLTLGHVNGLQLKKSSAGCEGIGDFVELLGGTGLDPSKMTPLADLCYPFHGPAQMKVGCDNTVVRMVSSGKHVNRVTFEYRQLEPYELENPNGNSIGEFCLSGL
- assay_remarks: activators of CRF receptor 2 with binding protein – uHTS hits, confirmation (AID 602473)
- Format: functional
- stated_conditions: read-out: EC50_Mean
The source made the active and inactive calls.
Outcomes you can answer with include only these: active, inactive

compound	class
Cc1ccc(S(=O)(=O)Oc2ccc(C(c3c(C)n[nH]c3O)c3c(C)n[nH]c3O)cc2)cc1	inactive
O=C(O)c1cccc(NC(=NS(=O)(=O)c2ccccc2)c2ccccc2)c1	inactive
NC(=O)CSc1nnnn1-c1ccc2c(c1)OCCO2	inactive
COC(=O)c1c(C)[nH]c(O)c1/C=N/c1ccc(Oc2ccccc2)cc1	inactive
CCN=C(S)NNC(=O)c1cccn(Cc2ccc(Cl)cc2Cl)c1=O	active

Query: Outcome logged for CN(c1ccccc1)S(=O)(=O)c1ccc2c(c1)oc(=O)n2C in this assay:
Result: inactive

Query: Also, Cc1ccc(Cl)cc1N1CCN(C(=O)c2cccc3c(=O)c(C)c(-c4ccccc4)oc23)CC1 please.
Result: inactive

Query: Also, CC(=O)N1c2ccc(S(=O)(=O)N(C)CC(=O)NC3CCCC3)cc2CC1C (stereo not given) please.
Result: inactive

Query: Also, Cc1nc(-c2ccncc2)nc(NCCNc2ccc(C(F)(F)F)cn2)c1Cl please.
Result: inactive

Query: Also, c1ccc(C(c2nnnn2Cc2cccs2)N2CCN(C3CCCC3)CC2)cc1 (stereo not given) please.
Result: inactive

###

- subject_of_test: UniProt:P00748
- Sequence (P00748 20-372 limits assumed): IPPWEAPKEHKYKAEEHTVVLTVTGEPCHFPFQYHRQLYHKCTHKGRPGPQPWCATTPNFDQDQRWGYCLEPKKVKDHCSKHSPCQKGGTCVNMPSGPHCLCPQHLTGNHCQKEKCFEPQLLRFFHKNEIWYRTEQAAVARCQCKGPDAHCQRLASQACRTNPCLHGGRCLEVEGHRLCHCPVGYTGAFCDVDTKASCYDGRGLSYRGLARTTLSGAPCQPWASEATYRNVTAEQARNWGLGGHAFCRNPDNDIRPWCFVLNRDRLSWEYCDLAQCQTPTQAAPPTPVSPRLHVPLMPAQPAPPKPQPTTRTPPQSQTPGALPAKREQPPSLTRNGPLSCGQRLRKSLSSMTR
- Sequence (P00748 373-615 limits assumed): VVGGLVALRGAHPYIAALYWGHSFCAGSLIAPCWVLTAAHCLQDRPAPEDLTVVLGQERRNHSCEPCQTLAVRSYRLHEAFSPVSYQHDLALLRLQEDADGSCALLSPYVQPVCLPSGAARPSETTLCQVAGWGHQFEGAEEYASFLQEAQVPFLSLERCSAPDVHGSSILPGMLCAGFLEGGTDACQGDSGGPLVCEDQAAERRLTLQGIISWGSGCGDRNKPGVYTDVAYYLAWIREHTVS
- Type: functional
Activity calls are given as the source filed them.
Outcomes you can answer with include only these: active, inactive

molecule	class
O=C(OCC(=O)N1CCCc2ccccc21)c1ccc(Cl)nc1	inactive
O=C(COC(=O)C1CC(=O)N(Cc2ccco2)C1)c1ccc(OC(=O)c2ccco2)cc1 (stereo unspecified)	active

Query: Outcome logged for COc1ccc(-c2cc(-c3nnc(COC(=O)CC4CC5CCC4C5)o3)c3ccccc3n2)cc1OC (stereo unspecified) in this assay:
Result: inactive

###

- subject_of_test: Apoptotic protease-activating factor 1 (Homo sapiens)
- Sequence (O14727 whole entry): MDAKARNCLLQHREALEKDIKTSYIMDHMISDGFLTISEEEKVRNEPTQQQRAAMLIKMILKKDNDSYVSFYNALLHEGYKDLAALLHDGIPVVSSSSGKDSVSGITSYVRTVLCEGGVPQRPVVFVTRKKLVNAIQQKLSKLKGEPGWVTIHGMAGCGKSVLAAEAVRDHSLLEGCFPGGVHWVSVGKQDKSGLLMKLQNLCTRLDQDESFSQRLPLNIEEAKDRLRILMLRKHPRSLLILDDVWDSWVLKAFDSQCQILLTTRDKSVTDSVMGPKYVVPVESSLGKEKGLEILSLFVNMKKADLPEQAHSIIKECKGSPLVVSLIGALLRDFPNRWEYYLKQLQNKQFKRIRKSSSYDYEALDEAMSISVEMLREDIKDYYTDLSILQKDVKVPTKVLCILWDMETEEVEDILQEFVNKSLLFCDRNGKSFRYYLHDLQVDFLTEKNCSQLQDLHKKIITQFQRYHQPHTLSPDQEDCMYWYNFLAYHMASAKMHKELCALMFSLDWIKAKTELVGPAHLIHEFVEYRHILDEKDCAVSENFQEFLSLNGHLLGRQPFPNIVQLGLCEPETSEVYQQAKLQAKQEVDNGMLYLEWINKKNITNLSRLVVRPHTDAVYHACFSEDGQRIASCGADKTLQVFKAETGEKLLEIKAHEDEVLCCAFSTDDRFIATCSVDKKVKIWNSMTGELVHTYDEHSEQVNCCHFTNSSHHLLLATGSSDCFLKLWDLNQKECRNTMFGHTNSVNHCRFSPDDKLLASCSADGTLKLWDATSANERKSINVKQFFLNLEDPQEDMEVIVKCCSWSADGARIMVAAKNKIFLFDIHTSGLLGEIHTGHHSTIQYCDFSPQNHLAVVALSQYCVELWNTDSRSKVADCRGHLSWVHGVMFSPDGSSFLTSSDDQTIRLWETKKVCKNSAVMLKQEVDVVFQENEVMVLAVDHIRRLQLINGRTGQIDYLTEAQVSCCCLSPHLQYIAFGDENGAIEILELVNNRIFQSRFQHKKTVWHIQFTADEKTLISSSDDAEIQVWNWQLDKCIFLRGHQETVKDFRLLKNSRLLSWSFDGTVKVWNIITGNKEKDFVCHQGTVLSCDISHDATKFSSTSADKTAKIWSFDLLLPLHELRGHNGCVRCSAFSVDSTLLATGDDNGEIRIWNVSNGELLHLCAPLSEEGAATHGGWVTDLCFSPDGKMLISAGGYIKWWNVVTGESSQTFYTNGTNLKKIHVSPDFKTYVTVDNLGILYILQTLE
- Assay type: functional
The source made the active and inactive calls.
Recorded IC50 for the following compounds

Before answering, review these 4 worked examples.
Cc1cc2nc3ccc(N(C)C)cc3nc2cc1N 34 µM (active)
CN(C)CCCNc1cc(O)c2ncccc2c1 15.8 µM (active)
COC(=O)c1nc(-c2ccc3c(n2)C(=O)C(=N)C(OC)=C3O)c(N)c(-c2ccc(OC)c(OC)c2O)c1C 3.39 µM (active)
Cc1ccc(-c2nnc(CSc3nnc(COc4cccc5ccccc45)n3-c3ccccc3)o2)cc1 6.83 µM (active)

Query: I would be grateful if you could share the reported IC50 for O=C(Cc1ccccc1)NC1(O)C(=O)c2ccccc2C1=O .
Result: 11 µM (active)

Query: Also, Cc1cc(C)c(S(=O)(=O)/N=C2\C=C(Nc3ccc(C(=O)O)cc3)C(=O)c3ccccc32)c(C)c1 please.
Result: 6.01 µM (active)

###

Reported AC50 for target or system UniProtKB P05177, by entry.
Sequence (P05177 whole entry): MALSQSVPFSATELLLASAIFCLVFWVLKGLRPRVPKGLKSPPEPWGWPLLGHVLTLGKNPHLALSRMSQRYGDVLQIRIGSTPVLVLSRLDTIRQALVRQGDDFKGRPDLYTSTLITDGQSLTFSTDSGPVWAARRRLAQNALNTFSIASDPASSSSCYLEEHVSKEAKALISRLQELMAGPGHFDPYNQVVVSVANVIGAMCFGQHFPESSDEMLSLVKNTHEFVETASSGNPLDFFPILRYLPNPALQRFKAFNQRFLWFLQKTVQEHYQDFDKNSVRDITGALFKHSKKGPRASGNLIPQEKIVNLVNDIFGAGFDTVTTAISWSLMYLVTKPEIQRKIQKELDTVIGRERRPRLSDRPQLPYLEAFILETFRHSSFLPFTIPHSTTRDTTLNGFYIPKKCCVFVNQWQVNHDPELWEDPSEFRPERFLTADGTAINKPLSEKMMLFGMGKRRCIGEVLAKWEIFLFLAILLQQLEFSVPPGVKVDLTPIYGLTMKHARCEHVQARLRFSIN

Before answering, review these 5 worked examples.
compound	AC50
O[C@@H](c1ccccc1)C1CCN(CCc2ccccc2)CC1	31.6 µM (inconclusive)
O=C(Oc1ccccc1N1C(=O)C2CCCCC2C1=O)c1ccccc1 (stereo unspecified)	15.8 µM (inconclusive)
CCNc1ncc2nc(-c3ccc(F)cc3)c(=O)n(CCC#N)c2n1	0.631 µM (inconclusive)
Cc1nc2ccccc2nc1-c1ccc(/N=[N+](\[O-])c2ccc(-c3nc4ccccc4nc3C)cc2)cc1	6.31 µM (inconclusive)
Cc1cc(-c2ccccc2)nnc1NCCN1CCOCC1	10 µM (inconclusive)

Query: I would be grateful if you could share the reported AC50 for Cc1ccc(-c2cnc(NC(=O)CCC(=O)N3CCCCC3)n2C)cc1 .
Result: 25.1 µM (inconclusive)

Query: Also, CCC/C=C(\CCC)C(NC(=O)c1cccs1)c1ccc(C(F)(F)F)cc1 (stereo unspecified) please.
Result: 3.16 µM (inconclusive)

Query: Also, COc1ccc(-c2nc3cnc(OC)nc3n(CCc3ccccc3)c2=O)cc1 please.
Result: 6.31 µM (inconclusive)

Query: Also, Clc1cc(I)cc(Cl)c1N=C1NCCN1 please.
Result: 15.8 µM (inconclusive)

Query: Also, COc1ccc(-c2csc(-n3ncc(-c4cccs4)c3N)n2)cc1 please.
Result: 0.355 µM (inconclusive)

Query: Also, O=c1c(CCc2ccccc2)nc2cnc(N3CCNCC3)nc2n1-c1ccccc1 please.
Result: 15.8 µM (inconclusive)
